// reported %Inh for each item listed
Test system: DYRK1A
CONDITION CONTEXT: concentration: 1 μM, replicates: in singlicate; n = 1;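 also: KINOMEscan kinase panel screen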
Response body: numeric value in %, unit text excluded.

Consider the worked cases shown below.
Cc1cc(-c2ccnc(Nc3cccc(C#N)c3)n2)cc(C)c1O ... 46
CN(c1ccc(NC(=O)Nc2cccc(Cl)c2)cc1)c1ccnc(N)n1.Cl ... 0

[in] // lookup %Inh for CN1CCN(Cc2ccc(NC(=O)Nc3ccc(N(C)c4ccnc(Nc5ccc(CS(C)(=O)=O)cc5)n4)cc3)cc2)CC1.Cl
[out] 0

[in] Form field: reported %Inh of COc1cc(Nc2ccnc3cc(-c4ccncc4)ccc23)cc(OC)c1OC.Cl
[out] 12

====

Overview of reported %Inh across a group of compounds:
System: BIKE
Construct: gene BMP2K
CONDITION CONTEXT: concentration: 1 μM, replicates: in singlicate; n = 1
Report only the number, with the unit % understood.

Worked examples follow.
CN(c1ccc(F)c(NC(=O)c2cccc(OC(C)(C)C#N)c2Cl)c1)c1ccc2nc(NC(=O)C3CC3)sc2n1 ... 0
CN(C)CCNS(=O)(=O)c1ccc(-c2ccnc3[nH]ccc23)cc1 ... 82
CN(C)c1ncnc2nc[nH]c12 ... 0
Cl.O=C(Nc1ccc(Oc2ccc3[nH]c(NC(=O)c4ccco4)nc3c2)cc1)Nc1cc(C(F)(F)F)ccc1F ... 15
COc1ccc(NC(=O)c2ccoc2)cc1-c1ccc(C(=O)NCC2CC2)cc1 ... 0

[in] Please provide the recorded %Inh for Cc1cc(-c2c(-c3ccc(F)cc3)ncn2CCCN2CCOCC2)nc(N)n1 , tested on BIKE.
[out] 0

[in] Notebook entry, BIKE assay: %Inh of CN(c1ccc2c(c1)nc(NCc1ccccc1)n2C)c1ccnc(Nc2ccc(CS(C)(=O)=O)cc2)n1.Cl = ?
[out] 24

[in] Tell me reported %Inh for Cc1ccc(NC(=O)c2ccc(Cl)c(Cl)c2)cc1-c1ccc(C(=O)Nc2ccncc2)cc1 , tested with BIKE.
[out] 40

====

Tested on: AXL
CONDITION CONTEXT: concentration: 1 μM, replicates: in singlicate; n = 1
TEST READOUT: %Inh (%)
Only the number, expressed in %, is required.

Previously resolved entries follow.
Cc1ccc(O)cc1Nc1ccnc2cc(-c3ccc(CN4CCCCC4)o3)ccc12 [GW557777] ... 0
CCNc1nccc(-c2c(-c3ccc(F)cc3)ncn2C2CCN(C)CC2)n1 ... 0
Cn1cc(-c2cnc(N)c3c(-c4ccc5c(c4)CCN5C(=O)Cc4ccccc4)csc23)cn1 [GSK2593074] ... 95.9
Nc1ncc(-c2ccc3nccc(-c4ccncc4)c3c2)cc1S(=O)(=O)N1CCCCC1 [GSK1693850] ... 52

Attention now turns to another entry.
[in] Field: %Inh (AXL). Entry: CN(C)CCNS(=O)(=O)c1ccc(-c2ccnc3[nH]ccc23)cc1 [GSK977620]
[out] 93.1

====

In this section we review reported %Inh values for a set of compounds.
Tested on: MAP4K4
CONDITION CONTEXT: concentration: 1 μM, replicates: in singlicate; n = 1
Write it as a number; the unit % goes unstated.

O=C(Nc1n[nH]c2nc(-c3cccc(O)c3)ccc12)C1CC1 ... 13
Cc1ccccc1CC(=O)N1CCc2cc(-c3cn(C)c4ncnc(N)c34)ccc21 ... 0

Kindly review the next compound as well.
[in] # %Inh lookup, item Cc1ccc(C)c(NC(=O)Nc2ccc(C)c(-c3ccc(C(=O)Nc4ccncc4)cc3)c2)c1
[out] 9

====

Test system: TRKB
CONDITION CONTEXT: concentration: 1 μM, replicates: in singlicate; n = 1
Doc: threshold 40% (exclusive). Items with %Inh beneath it return TRUE; others return FALSE.

CCNC(=O)/C=C/c1n[nH]c2cc(Sc3ccccc3C(=O)NC)ccc12 ... TRUE
Nc1ncnc2scc(-c3ccc(NC(=O)Cc4cc(F)ccc4F)cc3)c12.O=C(O)C(F)(F)F ... FALSE

[in] Given the entry N#Cc1cnc2cc(-c3cnc(CNCCN4CCOCC4)s3)ccc2c1Nc1ccc(Oc2ccccc2)cc1 , would its reported %Inh be below 40%?
[out] FALSE

[in] Please state whether %Inh is below 40% for CC(C)c1nc(-c2ccc(F)c(NS(=O)(=O)c3c(F)cccc3F)c2)c(-c2ccnc(Nc3ccc(N4CCOCC4)nc3)n2)s1
[out] TRUE

[in] Say whether its %Inh is strictly beneath 40%. Entry: Cc1ccccc1CC(=O)N1CCc2cc(-c3cn(C)c4ncnc(N)c34)ccc21
[out] TRUE

[in] Please check: %Inh for CCn1c(-c2nonc2N)nc2c(-c3ccccc3)ncc(OCCCN)c21.O=C(O)C(F)(F)F.O=C(O)C(F)(F)F , strictly under 40% or not?
[out] TRUE

[in] State whether 40% exceeds %Inh recorded for O=C(Nc1c(F)cccc1F)c1cc(C(=O)c2ccccc2F)c[nH]1 .
[out] TRUE

====

Readings of %Inh for the listed compounds
Test system: PAK2
CONDITION CONTEXT: concentration: 1 μM, replicates: in singlicate; n = 1
Give just the number in %; leave the unit off.

Cn1cc(-c2cnc(N)c3c(-c4ccc5c(c4)CCN5C(=O)Cc4ccccc4)csc23)cn1 ... 0
COc1ccc(C2=C(Nc3cccc(O)c3)C(=O)NC2=O)cc1 ... 12
Cl.Cl.NCC(NC(=O)c1cc(-c2cccnc2)c(-c2ccnc3[nH]ccc23)s1)c1ccccc1 (stereo not drawn) ... 6
CN(c1ccc(NC(=O)Nc2cccc(Cl)c2)cc1)c1ccnc(N)n1.Cl ... 34
Nc1ncnc2scc(-c3ccc(NC(=O)Cc4cc(F)ccc4F)cc3)c12.O=C(O)C(F)(F)F ... 32

[in] Using the record for O=C(Nc1n[nH]c2nc(-c3ccccc3O)ccc12)C1CC1 , report its %Inh.
[out] 0

[in] Data request, read-out %Inh, for CC(C)(C)c1ccc(C(=O)Nc2cn3cc(-n4ccnc4)ccc3n2)cc1
[out] 42

[in] Looking for the measured %Inh of O=C(Nc1n[nH]c2nc(-c3ccccc3)ccc12)C1CC1 , can you help?
[out] 0

[in] Value lookup for %Inh; key = N#CC1(c2cccc(C(=O)Nc3cccc(Oc4ccc5nc(NC(=O)C6CC6)sc5n4)c3)c2)CC1
[out] 27

[in] Please report the recorded %Inh for Nc1ncc(-c2ccc3nccc(-c4ccncc4)c3c2)cc1S(=O)(=O)N1CCCCC1 .
[out] 8

[in] Give its %Inh value. Item: CC(C)NCC(Cc1ccccc1)NC(=O)c1cc(Br)c(-c2ccnc3[nH]ccc23)s1.Cl.Cl (stereo not drawn)
[out] 0

[in] Using the record for O=C(O)C(F)(F)F.O=c1[nH]ccc2nc(N[C@@H]3CCNC3)nc(Nc3cc(Cl)cc(Cl)c3)c12 , report its %Inh.
[out] 78

[in] Recorded %Inh of Cn1cc(-c2ccc3c(c2)CCN3C(=O)Cc2cc(F)cc(F)c2F)c2c(N)ncnc21 , please.
[out] 12

[in] Fill in the blank: the reported %Inh of Cc1ccc(O)cc1Nc1ccnc2cc(-c3ccc(CN4CCCCC4)o3)ccc12 is ____.
[out] 23

[in] Item O=C(Nc1c(F)cccc1F)c1cc(C(=O)c2ccccc2F)c[nH]1 has what recorded %Inh?
[out] 0

[in] Name the reported %Inh value associated with the compound Cc1cc(-c2c(-c3ccc(F)cc3)ncn2CCCN2CCOCC2)nc(N)n1
[out] 66

[in] # lookup: %Inh of COc1cc(Nc2ccnc3cc(-c4ccncc4)ccc23)cc(OC)c1OC.Cl
[out] 0

[in] I'd like to know its %Inh. The compound in question is COc1cccc2c(-c3ccncc3)c(-c3ccc(F)cc3)nn12
[out] 10

====

System: MELK
CONDITION CONTEXT: concentration: 1 μM, replicates: in singlicate; n = 1
TEST READOUT: %Inh
For clarity, give the value followed by its unit.

Examples from the recorded data:
Cn1cc(-c2ccc3c(c2)CCN3C(=O)Cc2cc(F)cc(C(F)(F)F)c2)c2c(N)ncnc21 [GSK2635225] ... 0%
Nc1ncnc2scc(-c3ccc(NC(=O)Cc4cc(F)ccc4F)cc3)c12.O=C(O)C(F)(F)F [SB-731254-M] ... 4%
CC(C)NCC(Cc1ccccc1)NC(=O)c1cc(Br)c(-c2ccnc3[nH]ccc23)s1.Cl.Cl (stereo not drawn) [GSK1383281] ... 97.5%
COc1cccc(NC(=O)NCCNc2ccnc(Nc3ccc(F)cc3)n2)c1 [GSK1379879] ... 0%
COc1cc(Nc2ccnc3cc(-c4ccncc4)ccc23)cc(OC)c1OC.Cl [GW494610] ... 18%

Turning to the following molecule.
[in] Endpoint output: %Inh of Cl.N#CCc1ccc(Nc2nccc(Nc3ccc(Oc4ccccc4)cc3)n2)cc1 [GW639905] . Value?
[out] 0%

Reference source: paper PMC5540273
